Quick reference for pEC50 among some molecules
- assayTarget: Cholecystokinin receptor type A (Homo sapiens, UniProt P32238)
- Sequence (P32238 whole entry): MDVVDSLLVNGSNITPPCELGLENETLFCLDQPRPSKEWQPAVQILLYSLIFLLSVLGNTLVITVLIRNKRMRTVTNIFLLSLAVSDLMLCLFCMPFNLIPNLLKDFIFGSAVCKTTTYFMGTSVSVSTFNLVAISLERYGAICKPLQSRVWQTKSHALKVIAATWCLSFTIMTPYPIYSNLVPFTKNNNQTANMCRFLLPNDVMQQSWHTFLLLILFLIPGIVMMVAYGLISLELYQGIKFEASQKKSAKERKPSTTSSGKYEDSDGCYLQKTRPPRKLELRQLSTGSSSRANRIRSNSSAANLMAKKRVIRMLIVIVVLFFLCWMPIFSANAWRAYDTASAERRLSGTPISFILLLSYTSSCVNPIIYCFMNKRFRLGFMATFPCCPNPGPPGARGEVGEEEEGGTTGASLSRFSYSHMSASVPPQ
- experimentNotes: Agonist activity at human CCK1R expressed in human 1321N1 cells assessed as IP1 accumulation after 1 hr by HTRF assay
- Assay type: functional, cell-based
Numbered stars: 1 amine (or outer) side, 2 acyl side, 3 side chain; on linkers, the order of the positions; unused ones are H or OH. Square brackets hold non-standard residues; d marks the D form. Peptide text beside a SMILES is read from it. * marks the point of attachment. sY = N[C@@H](Cc1ccc(OS(=O)(=O)O)cc1)C(=O)O; C18 diacid = O=C(O)CCCCCCCCCCCCCCCCC(=O)*; γGlu = O=C(O)[C@H](CCC(=O)[*:2])N[*:1]; NMeF = CN[C@@H](Cc1ccccc1)C(=O)O; Nle = CCCC[C@H](N)C(=O)O; AEEA = NCCOCCOCC(=O)O

molecule: CCCC[C@H](NC(=O)[C@H](Cc1c[nH]c2ccccc12)NC(=O)CNC(=O)[C@@H](CCCNC(=O)COCCOCCNC(=O)COCCOCCNC(=O)CC[C@H](NC(=O)CCCCCCCCCCCCCCCCC(=O)O)C(=O)O)NC(=O)Cc1ccc(O)cc1)C(=O)N(C)[C@H](CC(=O)O)C(=O)N(C)[C@@H](Cc1ccccc1)C(N)=O
assayTarget: Cholecystokinin receptor type A (Homo sapiens, UniProt P32238)
pEC50: 10.22
//
molecule: CCCC[C@H](NC(=O)[C@H](Cc1c[nH]c2ccccc12)NC(=O)CNC(=O)[C@H](CC(C)C)NC(=O)[C@H](Cc1ccc(O)cc1)NC(=O)[C@H](CC(=O)O)NC(=O)COCCOCCNC(=O)COCCOCCNC(=O)CC[C@H](NC(=O)CCCCCCCCCCCCCCCCC(=O)O)C(=O)O)C(=O)N(C)[C@@H](CC(=O)O)C(=O)N(C)[C@@H](Cc1ccccc1)C(N)=O
assayTarget: Cholecystokinin receptor type A (Homo sapiens, UniProt P32238)
pEC50: 9.81
//
molecule: CCCC[C@H](NC(=O)[C@H](Cc1c[nH]c2ccccc12)NC(=O)CNC(=O)[C@H](CC(C)C)NC(=O)[C@H](Cc1ccc(OS(=O)(=O)O)cc1)NC(=O)[C@H](CC(=O)O)NC(=O)COCCOCCNC(=O)COCCOCCNC(=O)CC[C@H](NC(=O)CCCCCCCCCCCCCCCCC(=O)O)C(=O)O)C(=O)N1CCC[C@H]1C(=O)N(C)[C@@H](Cc1ccccc1)C(N)=O ({C18 diacid-γGlu-AEEA-AEEA}-D[sY]LGW[Nle]P[NMeF]-NH2)
assayTarget: Cholecystokinin receptor type A (Homo sapiens, UniProt P32238)
pEC50: 6.61
